Recorded values, source ChEMBL document CHEMBL1147862.

Tested on: Bacillus subtilis
measurement-notes: Antibacterial activity against Bacillus subtilis at 20 ug/ml by agar plate diffusion technique
Format: functional
measurement-setup: read-out: IZ
Decision: zone of inhibition at 20 µg/mL compared against 10 mm; not below it gives Satisfied, below it gives Not satisfied.

// known answers, use as guide
In [3]: df
Out[3]:
                                   molecule     class_name
0  COc1ccc(Cl)c(-c2nnc3sc(-c4cc(C)nc5ccccc45)nn23)c1      Satisfied
1  COc1ccc2[nH]c(C)c(Cc3nn4c(-c5ccoc5C)nnc4s3)c2c1  Not satisfied
2  COc1ccc(Cl)c(-c2nnc3n2NC(c2cccn2C)S3)c1 (stereo not drawn)  Not satisfied
3  COc1ccc(Cc2nnc3n2NC(c2ccc[nH]2)S3)cc1OC (stereo not drawn)  Not satisfied
4  COc1ccc(Cl)c(-c2nnc3sc(Cc4c[nH]c5ccc(OC)cc45)nn23)c1  Not satisfied
5  COc1ccc(Cl)c(-c2nnc3sc(-c4ccnc(F)c4)nn23)c1      Satisfied

Please turn your attention to the following entry.
Determine whether measured zone of inhibition at 20 µg/mL meets or exceeds 10 mm for COc1ccc(Cl)c(-c2nnc3sc(Cc4c(C)[nH]c5ccc(OC)cc45)nn23)c1
Not satisfied
